Below, each entry is listed with its recorded solubility kinetic.
details: buffer; pH 7.4; 200.0 µM
metric: solubility kinetic

compound	result
O=C(NCCCNC(=O)c1ccco1)c1cccc(F)c1	> 43.5 µg/mL
NC(=O)C1CCN(C(=O)c2cccc3ccccc23)CC1	> 42.4 µg/mL
O=c1[nH]c2c(c(=O)[nH]1)CCC2	> 22.8 µg/mL
Cc1nc(C(F)(F)F)ccc1C(=O)NCC(O)c1ccccc1 (stereo not given)	> 48.6 µg/mL
Cc1cc(C)c2nc(SCC(=O)Nc3cc(C)on3)c(C#N)cc2c1	< 0.2 µg/mL
O=C(O)C1Cc2ccccc2CN1C(=O)CCl (stereo not given)	> 38.1 µg/mL
CC(OC(=O)c1cccnc1Cl)C(=O)NCc1ccccc1 (stereo not given)	> 47.8 µg/mL
O=C1NC(=O)C(c2ccc(F)cc2)N1 (stereo not given)	> 29.1 µg/mL
O=C(c1cccc(O)c1)N1CCN(C(=O)C2CC2)CC1	> 41.1 µg/mL
C=CCNC(=S)N1CCC(C(=O)c2ccc(C)cc2)CC1	> 45.4 µg/mL

---

conditions: buffer; pH 7.4; 200.0 µM

compound	solubility kinetic
O=C(NCCN1CCOCC1)c1ccc(Cl)cc1	> 40.3 µg/mL
Cc1ccccc1NS(=O)(=O)c1csc(C(N)=O)c1	> 44.5 µg/mL
O=C1C2C3C=CC(CC3)C2C(=O)N1c1ccc(Cl)cc1 (stereo not drawn)	< 0.6 µg/mL
COc1ccccc1-c1nc2ccc(Cl)cc2c(=O)n1O	> 45.4 µg/mL
CC(C)(C)c1ccc(CCC2OCC(C[N+]3(C)CCOCC3)O2)cc1.[I-] (stereo not drawn)	> 71.3 µg/mL
Cc1ccc(N2CC(C(=O)NC3CC3)CC2=O)cc1Cl (stereo not drawn)	> 43.9 µg/mL
CC(=O)c1cccc(NC(=O)N2CC(C)OC(C)C2)c1 (stereo not drawn)	> 41.5 µg/mL
C=CCn1c(O)c(C(C)=Nc2ccc(C(=O)O)cc2)c(=O)[nH]c1=O	> 49.4 µg/mL

---

conditions: buffer; pH 7.4; 200.0 µM
Let's look at some compounds and their measured solubility kinetic.
metric: solubility kinetic (µg/mL)

compound	metric	result.qualifier	quantitative.result
Fc1ccc(-c2nnc(N3CCOCC3)c3ccccc23)cc1F	solubility kinetic	>	49.1
CCOC(=O)c1c(C)[nH]c(C)c1C(=O)COC(=O)/C=C/c1ccco1	solubility kinetic	>	51.8
Cc1noc(NC(=O)c2ccc(Cl)cc2)c1Cl	solubility kinetic	=	28.2
Cc1ccc(NC(=O)c2ccc(=O)[nH]c2)cc1S(=O)(=O)N1CCCCCC1	solubility kinetic	>	58.4
Oc1ccc(Br)cc1CNc1cccc2cccnc12	solubility kinetic	=	1
Cc1ccc(CN2CCSCC2)cc1	solubility kinetic	=	7.4
COc1ccc(NS(=O)(=O)c2ccc3[nH]c(=O)[nH]c3c2)cc1OC	solubility kinetic	>	52.4
COc1ccc(-c2csc(Nc3ccc(C)cn3)n2)cc1OC	solubility kinetic	=	1.3
Cc1ccc(-n2c(C)cc(/C=C3\SC(=O)NC3=O)c2C)cc1	solubility kinetic	<	0.3
CCOC(=O)c1sc(=S)n(CC)c1NC(=O)c1ccccc1C	solubility kinetic	=	3.4
COc1ccc(C(=O)OCC(=O)NC(C)CCc2ccccc2)cc1 (stereo unspecified)	solubility kinetic	=	10.1
Clc1cccc(Cl)c1CN1CCN(c2ncccn2)CC1	solubility kinetic	=	17.2
CC1CCCC(C)N1C(=O)COC(=O)CNC(=O)c1ccccc1 (stereo unspecified)	solubility kinetic	>	49.9
Cc1ccc(CNc2cnccn2)s1	solubility kinetic	=	30
CC(C)(C)NC(=O)NC(=O)CSc1ncccn1	solubility kinetic	>	40.2
O=S(=O)(CCN1CCN(c2ccccn2)CC1)c1ccc(F)cc1	solubility kinetic	=	49
NS(=O)(=O)c1ccc(NS(=O)(=O)c2ccc(Br)cc2)cc1	solubility kinetic	>	58.7
COc1cc(C2(c3ccc(O)c(OC)c3)C(=O)N(C)c3ccc(C)cc32)ccc1O	solubility kinetic	=	51.4
COc1cccc(OC)c1C1=NC(C)(C)CO1	solubility kinetic	>	35.3
O=S1(=O)CCN(Cc2ccccc2C(F)(F)F)CC1	solubility kinetic	>	44
CC1CC(C)CN(CC(=O)N2CCOCC2)C1.Cl (stereo unspecified)	solubility kinetic	>	41.5
CC(=O)Nc1c(O)c2cccc3c2n(c1=O)CCC3	solubility kinetic	=	36.5
O=C(O)c1cc([N+](=O)[O-])ccc1NCc1ccccc1Cl	solubility kinetic	=	45
O=C(NCC1CCCCC1)c1ccc(Cl)nc1	solubility kinetic	>	37.9
Cc1ccc(NC(=O)CSc2nc(C)c(Cc3ccccc3)c(=O)[nH]2)cc1	solubility kinetic	=	1.4
O=C1NC(=O)/C(=C\c2cn(Cc3ccccc3F)c3ccccc23)N1	solubility kinetic	=	0.8
CC(=O)c1cccc(NC(=O)Nc2nc(C)cc(C)n2)c1	solubility kinetic	=	1.8
CCOc1cc(C2NC(=O)c3ccccc3O2)ccc1OC (stereo unspecified)	solubility kinetic	=	8.6
CCn1c(C)nc2cc(S(=O)(=O)Nc3ccc(C)cc3)ccc21	solubility kinetic	>	49.4
C/C(=C/c1ccccc1)C(=O)N1CCN(c2ccccc2)CC1	solubility kinetic	=	37.1
N#C/C(=C\c1ccccc1O)C(=O)Nc1ccccn1	solubility kinetic	=	32.9
